List of IC50 values.
- Test system: H460 (human lung cancer)
- assay: MTT cytotoxicity assay, H460
- Format: cell-based
- condition_label: Homo sapiens, NCI-H460; H460 cells, 50% cell growth inhibition after 72 h of drug exposure, MTT
Quick note: give the figure in µM, leave out the unit.

For orientation, consider the following solved cases.
>>> experimental_value("C[C@@H]1CC[C@H]2[C@@H](C)C(OCCOc3ccc(/C=C/S(=O)(=O)Nc4c(Cl)cccc4Cl)cc3)O[C@@H]3O[C@@]4(C)CC[C@@H]1[C@]32OO4 (stereo partly drawn) [Compound 3h]")
1.28
>>> experimental_value("Cc1ccc(F)c(NS(=O)(=O)/C=C/c2ccc(OCc3ccc(C(=O)NCCOC4O[C@@H]5O[C@@]6(C)CC[C@H]7[C@H](C)CC[C@@H]([C@H]4C)[C@@]57OO6)cc3)cc2)c1 (stereo partly drawn) [Compound 6d]")
10.9

Query: Tell me the measured IC50 of C[C@@H]1CC[C@H]2[C@@H](C)C(OCCNC(=O)c3ccc(COc4ccc(/C=C/S(=O)(=O)Nc5c(Cl)cccc5Cl)cc4)cc3)O[C@@H]3O[C@@]4(C)CC[C@@H]1[C@]32OO4 (stereo partly drawn) [Compound 6h] , please.
Result: 1.21

====

- Test system: WI-38 (human fetal lung fibroblasts)
- assay: MTT cytotoxicity assay, normal cell line WI-38
- Format: cell-based
- condition_label: Homo sapiens, normal WI-38 cells, 50% cell growth inhibition after 72 h of drug exposure, read-out: IC50(μM) WI38
Lab note - cut at 20 µM for IC50: class 1 if strictly below, class 0 if not.

>>> label_value("C[C@@H]1CC[C@H]2[C@@H](C)C(OCCOc3ccc(/C=C/S(=O)(=O)Nc4cccc(Cl)c4)cc3)O[C@@H]3O[C@@]4(C)CC[C@@H]1[C@]32OO4 (some centres unmarked)")
"class 0"
>>> label_value("Cc1ccccc1NS(=O)(=O)/C=C/c1ccc(OCCOC2O[C@@H]3O[C@@]4(C)CC[C@H]5[C@H](C)CC[C@@H]([C@H]2C)[C@@]35OO4)cc1 (some centres unmarked)")
"class 1"
>>> label_value("C[C@@H]1CC[C@H]2[C@@H](C)C(OCCOc3ccc(/C=C/S(=O)(=O)Nc4c(Cl)cccc4Cl)cc3)O[C@@H]3O[C@@]4(C)CC[C@@H]1[C@]32OO4 (some centres unmarked)")
"class 0"

Now consider a different compound.
Query: Answer whether the compound C[C@@H]1CC[C@H]2[C@@H](C)C(OCCOc3ccc(/C=C/S(=O)(=O)Nc4ccccc4)cc3)O[C@@H]3O[C@@]4(C)CC[C@@H]1[C@]32OO4 (some centres unmarked) has IC50 strictly less than 20 µM
Result: class 1

====

# melting point per record follows

In the examples that follow, each entry is paired with its recorded melting point.
>>> experimental_value("Cc1ccccc1NS(=O)(=O)/C=C/c1ccc(OCCOC2O[C@@H]3O[C@@]4(C)CC[C@H]5[C@H](C)CC[C@@H]([C@H]2C)[C@@]35OO4)cc1 (stereo partly drawn) [Compound 3e]")
"136 to 138 °C"
>>> experimental_value("C[C@@H]1CC[C@H]2[C@@H](C)C(OCCOc3ccc(/C=C/S(=O)(=O)Nc4ccccc4)cc3)O[C@@H]3O[C@@]4(C)CC[C@@H]1[C@]32OO4 (stereo partly drawn) [Compound 3a]")
"136 to 138 °C"
>>> experimental_value("Cc1ccc(F)c(NS(=O)(=O)/C=C/c2ccc(OCCOC3O[C@@H]4O[C@@]5(C)CC[C@H]6[C@H](C)CC[C@@H]([C@H]3C)[C@@]46OO5)cc2)c1 (stereo partly drawn) [Compound 3d]")
"138 to 140 °C"
>>> experimental_value("C[C@@H]1CC[C@H]2[C@@H](C)C(OCCOc3ccc(/C=C/S(=O)(=O)Nc4ccccc4Cl)cc3)O[C@@H]3O[C@@]4(C)CC[C@@H]1[C@]32OO4 (stereo partly drawn) [Compound 3g]")
"141 to 143 °C"
>>> experimental_value("Cc1ccccc1NS(=O)(=O)/C=C/c1ccc(OCc2ccc(C(=O)NCCOC3O[C@@H]4O[C@@]5(C)CC[C@H]6[C@H](C)CC[C@@H]([C@H]3C)[C@@]46OO5)cc2)cc1 (stereo partly drawn) [Compound 6e]")
"143 to 145 °C"

Query: What value of melting point has been recorded for this entry: Cc1ccc(F)c(NS(=O)(=O)/C=C/c2ccc(OCc3ccc(C(=O)NCCOC4O[C@@H]5O[C@@]6(C)CC[C@H]7[C@H](C)CC[C@@H]([C@H]4C)[C@@]57OO6)cc3)cc2)c1 (stereo partly drawn) [Compound 6d]
Result: 135 to 137 °C

Query: Recorded melting point of C[C@@H]1CC[C@H]2[C@@H](C)C(OCCNC(=O)c3ccc(COc4ccc(/C=C/S(=O)(=O)Nc5ccc(F)c(C(F)(F)F)c5)cc4)cc3)O[C@@H]3O[C@@]4(C)CC[C@@H]1[C@]32OO4 (stereo partly drawn) [Compound 6j] , please.
Result: 152 to 154 °C

Query: So what's the measured melting point for this one? C[C@@H]1CC[C@H]2[C@@H](C)C(OCCNC(=O)c3ccc(COc4ccc(/C=C/S(=O)(=O)Nc5c(Cl)cccc5Cl)cc4)cc3)O[C@@H]3O[C@@]4(C)CC[C@@H]1[C@]32OO4 (stereo partly drawn) [Compound 6h]
Result: 151 to 153 °C

Query: What value of measured melting point is listed for C[C@@H]1CC[C@H]2[C@@H](C)C(OCCNC(=O)c3ccc(COc4ccc(/C=C/S(=O)(=O)Nc5ccccc5Cl)cc4)cc3)O[C@@H]3O[C@@]4(C)CC[C@@H]1[C@]32OO4 (stereo partly drawn) [Compound 6g] ?
Result: 147 to 150 °C
